Provide the reported pIC50 of each item.
measured on: IGF-1R (Homo sapiens, UniProt P08069)
Construct: expressed in transfected cells
Sequence (P08069 31-1367): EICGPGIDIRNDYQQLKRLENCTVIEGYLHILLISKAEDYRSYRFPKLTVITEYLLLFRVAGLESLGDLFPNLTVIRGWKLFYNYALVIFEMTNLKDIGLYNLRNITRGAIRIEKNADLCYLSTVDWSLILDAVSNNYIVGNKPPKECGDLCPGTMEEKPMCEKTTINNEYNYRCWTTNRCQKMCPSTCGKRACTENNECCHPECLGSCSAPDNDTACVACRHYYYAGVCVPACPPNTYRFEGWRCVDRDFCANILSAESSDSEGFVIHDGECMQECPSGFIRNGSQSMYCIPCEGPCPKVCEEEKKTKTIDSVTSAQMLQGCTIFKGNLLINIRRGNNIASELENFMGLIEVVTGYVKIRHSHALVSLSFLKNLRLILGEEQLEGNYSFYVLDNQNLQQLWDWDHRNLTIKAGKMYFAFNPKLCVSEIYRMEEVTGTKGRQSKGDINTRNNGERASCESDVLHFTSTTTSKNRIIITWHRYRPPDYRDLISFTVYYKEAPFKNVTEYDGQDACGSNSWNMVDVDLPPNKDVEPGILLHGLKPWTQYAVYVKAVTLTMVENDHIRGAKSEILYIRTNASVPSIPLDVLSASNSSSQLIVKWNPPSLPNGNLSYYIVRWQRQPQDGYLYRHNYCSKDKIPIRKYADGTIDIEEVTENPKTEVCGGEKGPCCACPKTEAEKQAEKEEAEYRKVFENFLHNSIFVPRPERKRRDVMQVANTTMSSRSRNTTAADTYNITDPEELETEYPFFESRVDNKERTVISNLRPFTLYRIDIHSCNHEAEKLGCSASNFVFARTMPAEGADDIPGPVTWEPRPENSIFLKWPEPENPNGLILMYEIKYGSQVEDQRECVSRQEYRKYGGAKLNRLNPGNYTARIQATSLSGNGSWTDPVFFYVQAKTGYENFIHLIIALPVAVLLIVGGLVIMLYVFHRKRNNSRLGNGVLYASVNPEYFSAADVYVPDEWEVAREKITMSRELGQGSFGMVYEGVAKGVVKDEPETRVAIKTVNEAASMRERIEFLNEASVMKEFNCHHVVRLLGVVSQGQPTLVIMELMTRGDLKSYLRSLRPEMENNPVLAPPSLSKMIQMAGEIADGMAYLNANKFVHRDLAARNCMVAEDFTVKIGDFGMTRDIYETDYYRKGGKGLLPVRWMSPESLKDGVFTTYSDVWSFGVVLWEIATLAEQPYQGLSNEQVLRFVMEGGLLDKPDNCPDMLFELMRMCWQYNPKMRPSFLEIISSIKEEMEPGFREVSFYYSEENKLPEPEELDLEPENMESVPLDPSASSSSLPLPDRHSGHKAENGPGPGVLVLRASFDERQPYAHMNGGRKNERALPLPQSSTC
protocol description: Example B-2: IGF-1R Assay (PathHunter cell lines, EC80 agonist challenge, chemiluminescent detection)
Assay type: cell-based
study conditions: PathHunter cells, compound 60 minutes at 37° C., EC80 agonist 3 hours; read-out: IC50, Biological Activity against IGF-1R (Table B2)
pIC50: −log10 of the molar value.

q: Give its pIC50 value. Item: CC1(C)C(=O)N(c2ccc(C3(C(F)(F)F)CC3)cc2)C(=O)N1Cc1ccnc(NCc2cnccn2)c1
a: ≥ 6.30

q: Any idea what its pIC50 is? The molecule is CC(Nc1cc(CN2C(=O)N(c3ccc(C4(C(F)(F)F)CC4)cc3)C(=O)C2(C)C)ccn1)c1cnn(C)c1 (stereo not shown)
a: ≥ 6.30

q: Could you share which pIC50 value was measured for CC1(C)C(=O)N(c2ccc3c(c2)N(C(=O)C2CC2)CC32CCC2)C(=O)N1Cc1ccnc(N[C@H]2CCOC2)c1 ?
a: ≥ 6.30

q: Could you share which pIC50 value was measured for CC1(C)C(=O)N(c2ccc(S(C)(=O)=O)cc2)C(=O)N1Cc1ccnc(N[C@H]2[C@@H]3COC[C@@H]32)c1 ?
a: < 5.00

q: If you can, please state the reported pIC50 value of C[C@H](CC#N)Nc1cc(CN2C(=O)N(c3ccc(C4(C(F)(F)F)CC4)cc3)C(=O)C2(C)C)ccn1 .
a: ≥ 6.30

q: // returns reported pIC50 for input CC(C)Nc1cc(CN2C(=O)N(c3ccc(SC(F)(F)F)cc3)C(=O)C2(C)CO)ccn1 (stereo not shown)
a: 5.00 to 5.70

q: Endpoint output: pIC50 of CC1(C)C(=O)N(c2ccc3c(c2)CCS3(=O)=O)C(=O)N1Cc1ccnc(N[C@H]2[C@@H]3COC[C@@H]32)c1 . Value?
a: < 5.00

q: So what does the record say about pIC50 for C[C@@H](CC#N)Nc1cc(CN2C(=O)N(c3ccc4c(c3)N(S(C)(=O)=O)CC4(C)C)C(=O)C2(C)C)ccn1 ?
a: ≥ 6.30

q: Quick one: pIC50 of C[C@@H](CC#N)Nc1cc(CN2C(=O)N(c3ccc(C(C)(C)C)cc3)C(=O)C2(C)C)ccn1 ?
a: 5.70 to 6.30

q: What value of measured pIC50 is listed for CC1(C)C(=O)N(c2ccc(C(C)(C)C(F)(F)F)cc2)C(=O)N1Cc1ccnc2c1CC(=O)N2 ?
a: ≥ 6.30

q: # query: pIC50 of entry CN1C[C@H](Nc2cc(CN3C(=O)N(c4ccc(S(=O)(=O)C(F)(F)F)cc4)C(=O)C3(C)C)ccn2)CC1=O
a: 5.70 to 6.30

q: What does the record list as pIC50 for CC(C)c1ccc(N2C(=O)N(Cc3ccnc4c3CC(=O)N4)C(C)(C)C2=O)cc1C#N ?
a: 5.70 to 6.30

q: So what's the measured pIC50 for this one? CC1(C)C(=O)N(c2ccc(C3(C(F)(F)F)CC3)cc2)C(=O)N1Cc1ccnc(NC2CCOCC2)c1
a: ≥ 6.30

* * *

Kindly supply the reported IC50 values for the records listed here.
measured on: IGF-1R (Homo sapiens, UniProt P08069)
Construct: expressed in transfected cells
protocol description: Example B-1: IGF-1R Assay (PC3 cells stimulated with IGF1, AlphaLISA on cell lysates)
Type: cell-based
study conditions: compound two hours, IGF1 200 ng/mL for 30 min, read-out: IC50, Biological Activity against IGF-1R (Table B1)

q: # get_value(readout='IC50', item= CN1CC(Nc2cc(CN3C(=O)N(c4ccc(C(C)(C)C)cc4)C(=O)C3(C)C)ccn2)C1 )
a: 500 to 2000 nM

q: Any idea what its IC50 is? The compound is CC(C)Nc1cc(CN2C(=O)N(c3ccc(I)cc3)C(=O)C2(C)C)ccn1
a: 500 to 2000 nM

q: Can you share its IC50? I mean this compound: CC1(C)C(=O)N(c2ccc(C3(C(F)(F)F)CC3)cc2)C(=O)N1Cc1ccnc2[nH]cc(Br)c12
a: ≤ 500 nM

q: Name the recorded IC50 for Cc1c[nH]c2ncc(CN3C(=O)N(c4ccc(SC(F)(F)F)cc4)C(=O)C3(C)C)cc12 .
a: 2000 to 10000 nM

q: Would you kindly share the measured IC50 for CC1(C)C(=O)N(c2ccc(C3(C(F)(F)F)CC3)cc2)C(=O)N1Cc1ccnc2c1C(F)(F)C(=O)N2 ?
a: ≤ 500 nM

q: Consider the compound shown here: COC[C@H](C)Nc1cc(CN2C(=O)N(c3ccc(C(C)(C)C)cc3)C(=O)C2(C)C)ccn1 What is its recorded IC50?
a: ≤ 500 nM

q: For CC1(C)C(=O)N(c2ccc(SC(F)(F)F)cc2)C(=O)N1Cc1ccnc(NC(=O)NC2CCC(F)(F)C2)c1 (centres unmarked) , what is its reported IC50?
a: ≤ 500 nM

q: Data request, read-out IC50, for CC(C)(C)c1ccc(N2C(=O)N(Cc3ccnc(-c4ccn[nH]4)c3)C(C)(C)C2=O)cc1
a: ≤ 500 nM
